# Tested on: 299254-011-R-J1-PDC complex spheroid viability
# assayExplanation: Anticancer human tumor 299254-011-R-J1-PDC patient-derived melanoma cell line growth inhibition [POLQ]
# measurementContext: second compound 3.16 µM; first compound 1 µM; stronger effect = lower value
Reported viability, T/C by item:
Please reply with the bare figure in % and do not write the unit itself.

COc1cccc(OCCCN)c1-c1cc(Nc2cnc(C#N)cn2)n[nH]1 + Cc1cccc(N(C)C(=O)C2C(O)CCN2c2nc(C)cc(C(F)(F)F)c2C#N)c1 | 33.9

q: Output viability, T/C of O=C(c1cc(Cc2n[nH]c(=O)c3ccccc23)ccc1F)N1CCN(C(=O)C2CC2)CC1 + Nc1ccc(C#CCN(C(=O)Cc2ncc(C(F)(F)F)cc2C(F)(F)F)c2ccc(F)cc2)nn1
a: 113

q: Give the value of viability, T/C reported for the following: CCc1cc2c(N3CCc4c(cc(Cn5ccnc5)cc4-c4cn(C)nc4C(F)(F)F)C3=O)cc(C)nc2c(OC)n1 + Cc1cccc(N(C)C(=O)C2C(O)CCN2c2nc(C)cc(C(F)(F)F)c2C#N)c1
a: 84.5

q: Return the recorded viability, T/C value; entry: Nc1ccn(C2OC(CO)C(O)C2(F)F)c(=O)n1 (centres undefined) + COC1C(OC(N)=O)C(O)C(Oc2ccc3c(O)c(NC(=O)c4ccc(O)c(CC=C(C)C)c4)c(=O)oc3c2C)OC1(C)C
a: 39.6

q: Tell us which viability, T/C value is on record for O=C(Nc1ccc(O)c(NS(=O)(=O)c2ccc(F)cc2)c1)c1ccc(-c2ccccc2)cc1 + Cc1cccc(N(C)C(=O)C2C(O)CCN2c2nc(C)cc(C(F)(F)F)c2C#N)c1
a: 94.8

---

# Test system: 299254-011-R-J1-PDC complex spheroid viability
# assayExplanation: Anticancer human tumor 299254-011-R-J1-PDC cell line growth inhibition [POLQ];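 further: spheroids exposed to drugs for one week before measurement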;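 on viability, T/C: percent viability relative to DMSO vehicle control taken as 100%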
# measurementContext: second compound 0.316 µM; first compound 3.16 µM; stronger effect = lower value
Binary label based on viability, T/C with cut-off 40%: below gives y, not below gives n.

Use these answered entries as a reference point.
CCc1cc2c(N3CCc4c(cc(Cn5ccnc5)cc4-c4cn(C)nc4C(F)(F)F)C3=O)ccnc2c(OC)n1 + COC1C(OC(N)=O)C(O)C(Oc2ccc3c(O)c(NC(=O)c4ccc(O)c(CC=C(C)C)c4)c(=O)oc3c2C)OC1(C)C | n
Nc1ccn(C2OC(CO)C(O)C2(F)F)c(=O)n1 (stereo not given) + Cc1cccc(N(C)C(=O)C2C(O)CCN2c2nc(C)cc(C(F)(F)F)c2C#N)c1 | y
CCc1cc2c(N3CCc4c(cc(Cn5ccnc5)cc4-c4cn(C)nc4C(F)(F)F)C3=O)cc(C)nc2c(OC)n1 + Cc1cccc(N(C)C(=O)C2C(O)CCN2c2nc(C)cc(C(F)(F)F)c2C#N)c1 | n

q: Is the reported viability, T/C for O=C(c1cc(Cc2n[nH]c(=O)c3ccccc23)ccc1F)N1CCN(C(=O)C2CC2)CC1 + COC1C(OC(N)=O)C(O)C(Oc2ccc3c(O)c(NC(=O)c4ccc(O)c(CC=C(C)C)c4)c(=O)oc3c2C)OC1(C)C strictly below 40%?
a: n

q: Please check: viability, T/C for CC1COCCN1c1cc(-c2ccnn2C)c2ccnc(-c3ccn[nH]3)c2n1 (stereo not given) + Nc1ccc(C#CCN(C(=O)Cc2ncc(C(F)(F)F)cc2C(F)(F)F)c2ccc(F)cc2)nn1 , strictly under 40% or not?
a: y

---

Measured viability, T/C, listed per entry for reference.
# Tested on: 299254-011-R-J1-PDC complex spheroid viability
# assayExplanation: Anticancer human tumor 299254-011-R-J1-PDC cell line growth inhibition [POLQ];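 further: spheroids exposed to drugs for one week before measurement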;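 on viability, T/C: percent viability relative to DMSO vehicle control taken as 100%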
# measurementContext: second compound 10 µM; first compound 10 µM; stronger effect = lower value
Write the number in % without appending the unit.

COc1cc2cc(C(=O)CCC(=O)O)sc2cc1OC + COC1C(OC(N)=O)C(O)C(Oc2ccc3c(O)c(NC(=O)c4ccc(O)c(CC=C(C)C)c4)c(=O)oc3c2C)OC1(C)C | 97.5
C#Cc1c(F)ccc2cc(O)cc(-c3ncc4c(N5CC6CCC(C5)N6)nc(OCC56CCCN5CC(F)C6)nc4c3F)c12 (stereo not given) + COC1C(OC(N)=O)C(O)C(Oc2ccc3c(O)c(NC(=O)c4ccc(O)c(CC=C(C)C)c4)c(=O)oc3c2C)OC1(C)C | 69.2
C=CC(=O)N1CCN(c2nc(=O)n(-c3c(C)ccnc3C(C)C)c3nc(-c4c(O)cccc4F)c(F)cc23)C(C)C1 (stereo not given) + Cc1cccc(N(C)C(=O)C2C(O)CCN2c2nc(C)cc(C(F)(F)F)c2C#N)c1 | 75.2
CC(C)n1c(=O)n(C)c2cnc3cc(F)c(-c4ccc(OCCCN5CCCCC5)nc4)cc3c21 + COC1C(OC(N)=O)C(O)C(Oc2ccc3c(O)c(NC(=O)c4ccc(O)c(CC=C(C)C)c4)c(=O)oc3c2C)OC1(C)C | 115

API: the following record is the query input.
q: Dear colleague, please send me the reported viability, T/C for O=C(c1cc(Cc2n[nH]c(=O)c3ccccc23)ccc1F)N1CCN(C(=O)C2CC2)CC1 + COC1C(OC(N)=O)C(O)C(Oc2ccc3c(O)c(NC(=O)c4ccc(O)c(CC=C(C)C)c4)c(=O)oc3c2C)OC1(C)C when you can.
a: 95.2

---

# Test system: 299254-011-R-J1-PDC complex spheroid viability
# assayExplanation: Anticancer human tumor 299254-011-R-J1-PDC cell line growth inhibition [POLQ];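 further: spheroids exposed to drugs for one week before measurement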
# measurementContext: curve of first compound; second compound 3.16 µM
Examples of compounds with documented IC50 follow.
Quick note: give the figure in nM, leave out the unit.

Below are worked cases with known answers.
COc1cccc2c1C(=O)c1c(O)c3c(c(O)c1C2=O)CC(O)(C(=O)CO)CC3OC1CC(N)C(O)C(C)O1 (stereo not given) + Nc1ccc(C#CCN(C(=O)Cc2ncc(C(F)(F)F)cc2C(F)(F)F)c2ccc(F)cc2)nn1 | 750
CC(=O)O[C@H]1C(=O)[C@@]2(C)[C@H]([C@H](OC(=O)c3ccccc3)[C@]3(O)C[C@H](OC(=O)[C@H](O)[C@@H](NC(=O)c4ccccc4)c4ccccc4)C(C)=C1C3(C)C)[C@]1(OC(C)=O)CO[C@@H]1C[C@@H]2O + Cc1cccc(N(C)C(=O)C2C(O)CCN2c2nc(C)cc(C(F)(F)F)c2C#N)c1 | 26.8

Moving on to the next compound.
q: Given CC1COCCN1c1cc(C2(S(C)(=N)=O)CC2)nc(-c2ccnc3[nH]ccc23)n1 (stereo not given) + Nc1ccc(C#CCN(C(=O)Cc2ncc(C(F)(F)F)cc2C(F)(F)F)c2ccc(F)cc2)nn1 , report its IC50 on 299254-011-R-J1-PDC complex spheroid viability.
a: 3740

---

Examples of molecules with documented viability, T/C follow.
# Test system: 299254-011-R-J1-PDC complex spheroid viability
# assayExplanation: Anticancer human tumor 299254-011-R-J1-PDC cell line growth inhibition [POLQ];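 further: spheroids exposed to drugs for one week before measurement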;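 on viability, T/C: percent viability relative to DMSO vehicle control taken as 100%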
# measurementContext: second compound 0.1 µM; first compound 0.0316 µM; stronger effect = lower value
Please respond with the number in % and leave the unit unwritten.

Record excerpt, results attached:
CCc1c2c(nc3ccc(O)cc13)-c1cc3c(c(=O)n1C2)COC(=O)[C@]3(O)CC + Nc1ccc(C#CCN(C(=O)Cc2ncc(C(F)(F)F)cc2C(F)(F)F)c2ccc(F)cc2)nn1 | 72.2
COc1ccc([C@@H](O)c2cc(-c3ncnc4cc(N5CCOCC5)ccc34)c(F)cc2Cl)nn1 + Cc1cccc(N(C)C(=O)C2C(O)CCN2c2nc(C)cc(C(F)(F)F)c2C#N)c1 | 90.1
CC1COCCN1c1cc(-c2ccnn2C)c2ccnc(-c3ccn[nH]3)c2n1 (stereo not given) + Cc1cccc(N(C)C(=O)C2C(O)CCN2c2nc(C)cc(C(F)(F)F)c2C#N)c1 | 77.4
CNCc1ccc(-c2[nH]c3cc(F)cc4c3c2CCNC4=O)cc1 + COC1C(OC(N)=O)C(O)C(Oc2ccc3c(O)c(NC(=O)c4ccc(O)c(CC=C(C)C)c4)c(=O)oc3c2C)OC1(C)C | 114
CC1COCCN1c1cc(C2(O)CC3CCC(C2)O3)c2cnn(-c3ccn[nH]3)c2n1 (stereo not given) + Cc1cccc(N(C)C(=O)C2C(O)CCN2c2nc(C)cc(C(F)(F)F)c2C#N)c1 | 93.9

q: Quick one: give measured viability, T/C for C=CC(=O)N1CCN(c2nc(=O)n(-c3c(C)ccnc3C(C)C)c3nc(-c4c(O)cccc4F)c(F)cc23)C(C)C1 (stereo not given) + Nc1ccc(C#CCN(C(=O)Cc2ncc(C(F)(F)F)cc2C(F)(F)F)c2ccc(F)cc2)nn1
a: 86.9

q: Look up viability, T/C of C=CCn1c(=O)c2cnc(Nc3ccc(N4CCN(C)CC4)cc3)nc2n1-c1cccc(C(C)(C)O)n1 + Nc1ccc(C#CCN(C(=O)Cc2ncc(C(F)(F)F)cc2C(F)(F)F)c2ccc(F)cc2)nn1 and report it.
a: 94.9

q: Report viability, T/C for COc1ccc([C@@H](O)c2cc(-c3ncnc4cc(N5CCOCC5)ccc34)c(F)cc2Cl)nn1 + Nc1ccc(C#CCN(C(=O)Cc2ncc(C(F)(F)F)cc2C(F)(F)F)c2ccc(F)cc2)nn1
a: 94.3

q: Indicate its recorded viability, T/C; the molecule in question is C#Cc1c(F)ccc2cc(O)cc(-c3ncc4c(N5CC6CCC(C5)N6)nc(OCC56CCCN5CC(F)C6)nc4c3F)c12 (stereo not given) + COC1C(OC(N)=O)C(O)C(Oc2ccc3c(O)c(NC(=O)c4ccc(O)c(CC=C(C)C)c4)c(=O)oc3c2C)OC1(C)C
a: 102

q: Indicate the recorded viability, T/C value for this molecule: C=CC(=O)N1CCN(c2nc(=O)n(-c3c(C)ccnc3C(C)C)c3nc(-c4c(O)cccc4F)c(F)cc23)C(C)C1 (stereo not given) + COC1C(OC(N)=O)C(O)C(Oc2ccc3c(O)c(NC(=O)c4ccc(O)c(CC=C(C)C)c4)c(=O)oc3c2C)OC1(C)C
a: 73.9

# credit: PubChem BioAssay AID1963849
